Molecular target: human AMPA receptor GluA4o/2i (Homo sapiens, UniProt P42262+P48058, Q607R)
Sequence (P42262 25-883 isoform P42262-2 Q607R, one chain of several): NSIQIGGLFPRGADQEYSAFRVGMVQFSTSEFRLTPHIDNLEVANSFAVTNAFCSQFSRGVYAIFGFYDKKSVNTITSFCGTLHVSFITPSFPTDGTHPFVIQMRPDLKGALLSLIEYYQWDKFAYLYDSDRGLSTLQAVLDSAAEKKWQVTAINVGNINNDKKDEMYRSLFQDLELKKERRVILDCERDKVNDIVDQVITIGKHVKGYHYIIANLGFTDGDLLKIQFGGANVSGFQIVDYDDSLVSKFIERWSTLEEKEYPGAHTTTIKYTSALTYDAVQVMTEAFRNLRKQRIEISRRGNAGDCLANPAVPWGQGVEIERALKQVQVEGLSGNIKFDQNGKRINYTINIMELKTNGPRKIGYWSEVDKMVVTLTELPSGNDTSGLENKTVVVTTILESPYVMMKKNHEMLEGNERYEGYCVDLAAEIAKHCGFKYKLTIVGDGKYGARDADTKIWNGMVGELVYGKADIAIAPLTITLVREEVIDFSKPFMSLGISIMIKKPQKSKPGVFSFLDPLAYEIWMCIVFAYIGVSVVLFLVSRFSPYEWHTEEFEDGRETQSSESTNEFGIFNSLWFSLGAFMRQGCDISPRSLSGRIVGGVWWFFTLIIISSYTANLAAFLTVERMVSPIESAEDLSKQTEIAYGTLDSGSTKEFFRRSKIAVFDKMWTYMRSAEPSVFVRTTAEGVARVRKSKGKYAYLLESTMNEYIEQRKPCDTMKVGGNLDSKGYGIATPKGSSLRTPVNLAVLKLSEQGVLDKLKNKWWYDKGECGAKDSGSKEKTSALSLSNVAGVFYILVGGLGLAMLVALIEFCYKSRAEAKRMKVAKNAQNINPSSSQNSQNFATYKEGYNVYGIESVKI
Assay: Glutamate-evoked currents, oocytes expressing recombinant human AMPA receptors
Protocol: Compounds were tested by bath application.
pEC50: −log10 of the molar value.

molecule	pEC50
O=C1c2cc3nnn(CCc4cccc(F)c4)c(=O)c3cc2OCN1C1CC1 [S 47445]	5.42

###

target: human AMPA receptor GluA4o/2o (Homo sapiens, UniProt P42262+P48058, A778Q/D799G/G801D/K798G/P767A/P797S/Q607R/S776N/S800G/T766N/V780L); test: Glutamate-evoked currents, oocytes expressing recombinant human AMPA receptors
Sequence (P48058 21-902 T766N/P767A/S776N/A778Q/V780L/P797S/K798G/D799G/S800G/G801D): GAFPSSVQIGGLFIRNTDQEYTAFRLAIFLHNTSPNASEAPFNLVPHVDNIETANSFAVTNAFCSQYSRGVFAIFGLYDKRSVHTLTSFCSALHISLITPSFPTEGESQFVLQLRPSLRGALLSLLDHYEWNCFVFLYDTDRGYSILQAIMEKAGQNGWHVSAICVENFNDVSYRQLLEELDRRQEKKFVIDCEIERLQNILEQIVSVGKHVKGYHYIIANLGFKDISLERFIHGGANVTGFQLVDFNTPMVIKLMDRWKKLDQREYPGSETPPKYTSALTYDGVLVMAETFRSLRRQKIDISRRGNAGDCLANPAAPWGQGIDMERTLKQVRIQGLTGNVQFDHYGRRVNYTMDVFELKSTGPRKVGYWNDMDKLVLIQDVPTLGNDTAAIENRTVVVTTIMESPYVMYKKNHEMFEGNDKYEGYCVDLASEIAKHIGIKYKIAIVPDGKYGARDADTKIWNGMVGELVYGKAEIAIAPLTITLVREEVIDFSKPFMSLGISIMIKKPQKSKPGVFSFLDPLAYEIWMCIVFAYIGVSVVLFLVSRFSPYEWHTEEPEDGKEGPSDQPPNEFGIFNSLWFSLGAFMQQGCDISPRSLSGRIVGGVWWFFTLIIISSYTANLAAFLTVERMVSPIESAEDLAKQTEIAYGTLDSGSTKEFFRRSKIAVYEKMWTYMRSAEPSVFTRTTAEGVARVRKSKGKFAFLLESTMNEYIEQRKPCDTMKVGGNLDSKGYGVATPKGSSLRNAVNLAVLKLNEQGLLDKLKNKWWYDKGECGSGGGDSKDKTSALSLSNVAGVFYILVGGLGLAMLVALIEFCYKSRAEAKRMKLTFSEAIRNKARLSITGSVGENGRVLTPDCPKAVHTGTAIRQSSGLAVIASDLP
Sequence (P42262 25-883 Q607R): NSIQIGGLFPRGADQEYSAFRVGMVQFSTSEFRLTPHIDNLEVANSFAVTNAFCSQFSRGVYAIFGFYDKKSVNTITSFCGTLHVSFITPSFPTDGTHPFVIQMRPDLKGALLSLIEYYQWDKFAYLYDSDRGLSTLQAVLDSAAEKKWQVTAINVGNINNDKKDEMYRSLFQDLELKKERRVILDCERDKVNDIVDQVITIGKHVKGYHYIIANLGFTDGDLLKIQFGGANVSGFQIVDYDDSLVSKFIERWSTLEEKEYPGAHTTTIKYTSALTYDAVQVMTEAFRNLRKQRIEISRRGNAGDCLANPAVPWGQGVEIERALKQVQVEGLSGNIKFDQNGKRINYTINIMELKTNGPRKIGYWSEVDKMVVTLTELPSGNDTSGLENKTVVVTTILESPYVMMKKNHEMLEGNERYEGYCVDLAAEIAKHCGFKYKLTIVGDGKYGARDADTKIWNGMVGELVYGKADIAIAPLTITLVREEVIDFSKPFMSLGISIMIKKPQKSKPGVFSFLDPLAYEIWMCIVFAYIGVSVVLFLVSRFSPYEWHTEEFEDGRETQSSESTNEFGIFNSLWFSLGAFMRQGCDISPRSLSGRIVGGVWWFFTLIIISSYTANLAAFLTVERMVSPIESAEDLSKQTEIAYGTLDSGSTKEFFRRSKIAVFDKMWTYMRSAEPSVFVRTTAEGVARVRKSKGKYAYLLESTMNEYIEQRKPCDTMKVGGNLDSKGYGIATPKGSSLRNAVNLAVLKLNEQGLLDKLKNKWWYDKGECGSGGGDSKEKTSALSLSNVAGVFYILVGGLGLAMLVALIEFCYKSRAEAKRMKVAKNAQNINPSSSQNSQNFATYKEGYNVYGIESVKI
experimental_endpoint: EC50 (nM)

compound	unit_symbol	measured
O=C1c2cc3nnn(CCc4cccc(F)c4)c(=O)c3cc2OCN1C1CC1 [S 47445]	nM	2900
